Molecular target: alpha2B adrenergic receptor (Homo sapiens)
Construct: expressed in transfected cells; host or cells: NIH-3T3 cells
Sequence (P18089 1-450): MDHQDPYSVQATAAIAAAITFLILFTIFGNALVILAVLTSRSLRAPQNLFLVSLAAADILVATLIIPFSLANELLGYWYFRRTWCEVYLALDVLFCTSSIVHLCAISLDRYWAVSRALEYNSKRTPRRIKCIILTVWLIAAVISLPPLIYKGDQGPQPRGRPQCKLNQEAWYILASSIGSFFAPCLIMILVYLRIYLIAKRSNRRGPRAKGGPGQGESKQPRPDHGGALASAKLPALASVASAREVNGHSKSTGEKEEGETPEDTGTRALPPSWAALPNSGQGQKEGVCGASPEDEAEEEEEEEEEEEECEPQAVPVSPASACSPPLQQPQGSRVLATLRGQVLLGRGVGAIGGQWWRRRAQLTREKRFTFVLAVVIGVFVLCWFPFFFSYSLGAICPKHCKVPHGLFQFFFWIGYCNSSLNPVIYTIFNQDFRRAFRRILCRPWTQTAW
Assay: Receptor Selection and Amplification Technology (RSAT) assay, alpha2B
Type: cell-based
Settings: RSAT in NIH-3T3 cells; ratio of maximal effect of drug to that of standard full agonist brimonidine (UK14304); NA = not active at concentrations less than 10 micromolar
Procedure: The imidazole-2-thione compounds of the invention are agonists of alpha2 adrenergic receptors. […] Al., 1995, Pharmacol. Toxicol. 76, pp. 308-311 (incorporated herein by reference) and is also described below. […] NIH-3T3 cells are plated at a density of 2×10^6 cells in 15 cm dishes and maintained in Dulbecco's modified Eagle's medium supplemented with 10% calf serum. […] The absorbance is a measure of enzyme activity, which depends on cell number and reflects a receptor-mediated cell proliferation. […]

COMPOUND | Intrinsic Activity Alpha 2B
CC(c1ccccc1)c1c[nH]c(=S)[nH]1 (stereo not shown) [Compound 4] | 1.11
CC(c1c[nH]c(=S)[nH]1)c1cccc(F)c1F (stereo not shown) [Compound 2] | 0.99
CC(c1c[nH]c(=S)[nH]1)c1cccc(C(F)(F)F)c1F (stereo not shown) [Compound 3] | 1.04
CC(c1c[nH]c(=S)[nH]1)c1cccc(Cl)c1Cl (stereo not shown) [Compound 1] | 0.85
